TEST_PROTOCOL: cAMP Responsive Elements (CRE) small molecule agonists, cell-based qHTS assay: qHTS cell viability counter screen (AID 2060914);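 also: viability read after 3 h of compound exposure; % is scaled to controls: 0 for no effect and ±100 for the full control effect; nearly all actives have a fitted effect of over 50% in size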
TEST_SETTINGS: CRE-bla HEK293T viability, CellTiter-Glo luminescence, 5 h; series mostly up to 92.4 µM
Inconclusive results are not listed. The source made the active and inactive calls. Calls follow the shape of the dose curve; as a rule, active = well fitted cell-killing curve with a large enough effect in the repeat runs; inconclusive = weak or mixed curves, or effect the other way; inactive = flat fitted curve, though single readings scatter.
VALUE_KIND: activity change, negative = cytotoxicity

// worked examples, activity change, negative = cytotoxicity included
| COMPOUND | activity change, negative = cytotoxicity |
| --- | --- |
| O=S(=O)(O)c1ccc2c(N=Nc3ccc(S(=O)(=O)O)c4ccccc34)c(O)c(S(=O)(=O)O)cc2c1 | 0.372% [at 8.39 µM] (inactive) |
| C=C[C@H]1CN2CC[C@H]1C[C@@H]2[C@@H](O)c1ccnc2ccc(OC)cc12 | inactive |
| Cc1cc(NC(=O)C2=C(O)c3ccccc3S(=O)(=O)N2C)no1 | inactive |
| NCC[C@H](O)C(=O)N[C@@H]1C[C@H](N)[C@@H](O[C@H]2O[C@H](CN)[C@@H](O)[C@H](O)[C@H]2O)[C@H](O)[C@H]1O[C@H]1O[C@H](CO)[C@@H](O)[C@H](N)[C@H]1O | -8.14% [at 0.349 µM] (inactive) |
| CCCCc1ncc(/C=C(\Cc2cccs2)C(=O)O)n1Cc1ccc(C(=O)O)cc1 | inactive |
| CC1=C(O)C(=O)CO1 | inactive |

[Q] Endpoint output: activity change, negative = cytotoxicity of CCCCCCCCCCCCCCCCCO . Value?
[A] -1.37% [at 18.9 µM] (inactive)

[Q] What do you get for CC(=O)SCc1ccco1 ?
[A] inactive

[Q] What do you get for N#Cc1ccccc1C#N ?
[A] inactive

[Q] What do you get for CC(=O)Oc1ccc(C)cc1 ?
[A] inactive

[Q] What do you get for N#Cc1ccccc1 ?
[A] inactive

[Q] What do you get for COCCc1ccc(OCC2CO2)cc1 (configuration not stated) ?
[A] inactive

[Q] What do you get for OCCCCCCCCCCCCBr ?
[A] inactive

[Q] What do you get for Cc1c(N)cccc1C(F)(F)F ?
[A] inactive

[Q] What do you get for [O]=[Mo](=[O])=[O] ?
[A] -14.6% [at 18.9 µM] (inactive)

[Q] What do you get for CO[C@H]1C=CO[C@@]2(C)Oc3c(C)c(O)c4c(O)c(c5c(c4c3C2=O)=NC2(CCN(CC(C)C)CC2)N=5)NC(=O)/C(C)=C\C=C/[C@H](C)[C@H](O)[C@@H](C)[C@@H](O)[C@@H](C)[C@H](OC(C)=O)[C@@H]1C ?
[A] inactive

[Q] What do you get for CCc1ccc(C)cc1 ?
[A] inactive

Each recorded value in this set is attributed to PubChem BioAssay (Tox21).
